// values below are reported GI50
Tested on: KM-20L2
Assay: NCI tumour cell line growth inhibition, 48 h
Activity calls are given as the source filed them. No stated cut-off is given here; in the data, active = GI50 up to about 1.1 µM and inactive = higher.

Compound	Measured On	GI50
Nc1ccc(C(=O)/C=C/c2ccccc2O)cc1	KM-20L2	> 100 µM (inactive)
Nc1ccc(C(=O)NN2C(=O)C(Cl)C2c2cccc(O)c2)cc1 (configuration not stated)	KM-20L2	17.1 µM (inactive)
Fc1ccc(C2SCc3nc4ccccc4n32)cc1F (configuration not stated)	KM-20L2	55.5 µM (inactive)
C=C1CC(CC)(CCN2C(=O)c3ccccc3C2=O)OC1=O (configuration not stated)	KM-20L2	15.8 µM (inactive)
CCCCNc1nc(C#N)c(N)s1	KM-20L2	> 100 µM (inactive)
O=C1C2Nc3ccccc3SC2C(=O)N1c1cccc([N+](=O)[O-])c1 (configuration not stated)	KM-20L2	> 20.5 µM (inactive)
CNS(=O)(=O)NN(C)S(=O)(=O)c1ccc2ccccc2c1	KM-20L2	> 100 µM (inactive)
NC1C[C@H](n2cc(/C=C/Br)c(=O)[nH]c2=O)C[C@@H]1CO (some centres not stated)	KM-20L2	> 100 µM (inactive)
CN(/C(=N\O)c1ccccc1)c1ccccc1	KM-20L2	17.3 µM (inactive)
COC(=O)C1=C(C(=O)OC)C23C=CC=CC24C(C(=O)OC)=C(C(=O)OC)C4C1C3 (configuration not stated)	KM-20L2	> 100 µM (inactive)
COc1ccc2cc3nc(O)cc(O)c3cc2c1OC	KM-20L2	> 100 µM (inactive)
C/C(=N\NS(=O)(=O)c1ccccc1)c1ccc(Cl)c(Cl)c1	KM-20L2	72.8 µM (inactive)

----------
GI50: recorded values
Tested on: U-251
Experiment: NCI tumour cell line growth inhibition, 48 h
Active and inactive are the calls of the source. No stated cut-off is given here; in the data, active = GI50 up to about 1.1 µM and inactive = higher.
Parameter Measured: GI50

Molecule	Result
CCCCCCCC(CC(=O)NC(CO)C(=O)NC(CO)CC(C)C)OC(=O)CC(CCCCCCC)OC(=O)CC(CCCCCCC)OC1OC(C)C(O)C(OC2OC(C)C(OC(C)=O)C(O)C2O)C1O (stereo not given)	4.41 µM (inactive)
CC(=O)Oc1cccc2c1C(=O)CCCC2	> 100 µM (inactive)
O=C(O)c1cc2c(s1)C(=O)c1sccc1C2=O	5.02 µM (inactive)
CN(CCO)c1nc2c(c(=O)[nH]1)CNCC2	> 100 µM (inactive)
COC(=O)/C=C(/C(=O)OC)c1c(C)cc2c(C)cc(C)cc(C)c1-2	8.26 µM (inactive)
O=[As](O)(O)c1ccc(/N=N/c2ccc([As](=O)(O)O)cc2)cc1	> 100 µM (inactive)
N/C(S)=N/N=C/c1cc(CN2CCOCC2)c(N)cn1	56.8 µM (inactive)
COC(=O)CN(C)P(=O)(N1CC1)N1CC1	> 100 µM (inactive)
CCOC(=O)N1c2ccccc2N(C(=O)OCC)C1CC(=O)/C=C/c1ccccc1	3.46 µM (inactive)
CCCC(=O)N[C@@H](Cc1cc(I)c(O)c(I)c1)C(=O)NCCCNCCCCNCCCNC(=O)[C@@H](N)CCCN=C(N)N	> 100 µM (inactive)
C1CSCCSCCSCCSC1	> 100 µM (inactive)
CC(C)(C)/C(=N\Nc1nc2ccccc2[nH]1)c1ccccn1	> 100 µM (inactive)
C=CCO/N=C/c1cc(/N=C(/S)c2ccoc2C)ccc1Cl	13.9 µM (inactive)
COc1ccc(/N=C\c2ccc(N(CCC#N)S(=O)(=O)c3ccccc3)cc2C)cc1	> 100 µM (inactive)
CC[C@@H]1CC[C@@H]2[C@H](CC[C@]3(C)[C@@H](O)CC[C@@H]23)[C@H]1CO	> 100 µM (inactive)
Cn1c(=O)c(C(=O)NC23CC4CC(CC(C4)C2)C3)c(O)c2ccccc21	24.5 µM (inactive)
CCCCCCCC/C=C\CCCCCCC(F)C(=O)O (stereo not given)	> 12.5 µM (inactive)
CCCCNS(=O)(=O)c1ccc(-c2ccc3c(c2)-c2ccc(S(=O)(=O)NCCCC)cc2S3(=O)=O)cc1	23 µM (inactive)
N#CCCN(c1ccc(/C=N/c2ccccc2Cl)cc1)S(=O)(=O)c1ccccc1	> 100 µM (inactive)
COC(=O)CC1(O)C(C=C(C)C)C(C(=O)OC)C(=O)C(C(=O)OC)C1C(=O)OC (stereo not given)	> 100 µM (inactive)
CSCCC(NCc1c(O)ccc2ccc(=O)oc12)C(=O)O (stereo not given)	> 100 µM (inactive)
NC(=O)CN1CC(C2=C(O)CN(CC(N)=O)C2=O)=CC1=O	> 100 µM (inactive)
Cc1c2nc3ccccc3sc-2cc(=O)c1C	47.5 µM (inactive)
CC1(C)CCCC2(C)C3=C(CCC12)C(=O)OC3 (stereo not given)	> 100 µM (inactive)
O=C(OCCN=C1c2ccccc2CCc2ccccc21)c1cc([N+](=O)[O-])cc([N+](=O)[O-])c1	> 100 µM (inactive)
C/C(=C\Cc1cc(O)ccc1O)CCc1c(C)c(O)c(O)c(C=O)c1C	18.6 µM (inactive)
C/C(=N\NS(=O)(=O)c1ccccc1)c1ccc(Cl)c(Cl)c1	37.2 µM (inactive)
O=C(O)/C=C/c1ccc(O)c(O)c1	> 100 µM (inactive)
c1cc2cc3c4c5c(cc6ccc7cc8cc9c%10c8c8c7c6c5c8c5c%10c(c1C9N1CCOCCOCCOCCOCCOCC1)c2c45)C3 (stereo not given)	> 100 µM (inactive)
Cc1cc2c(cc1-c1cc3c(cc1C)C(C(C)C)=C(O)C(=O)/C3=C\Nc1nc(-c3ccccc3)cs1)/C(=C/Nc1nc(-c3ccccc3)cs1)C(=O)C(O)=C2C(C)C	14.4 µM (inactive)
CC(=O)OCC1(C)C(O)CCC2(C)C1CCC1CC3CC12CCC3(O)CO (stereo not given)	> 100 µM (inactive)
c1ccc2c(c1)c1c(n2CCOCCN2CCOCC2)CCCC1	23.6 µM (inactive)
Cc1cc(O)nc(NNC(C#N)c2ccc(N(C)C)cc2)n1 (stereo not given)	> 100 µM (inactive)
O=C1NC(=O)C(C(CC(=O)c2ccc([N+](=O)[O-])cc2)c2ccccc2)C(=O)N1 (stereo not given)	49.4 µM (inactive)
COc1ccc(C2=NNC(=O)OC2c2ccccc2)cc1 (stereo not given)	> 100 µM (inactive)
N=C1N(S(=O)(=O)c2ccccc2)[C@@H](Cc2ccccc2)[C@H](c2ccccc2)C1(c1ccccc1)c1ccccc1	64.1 µM (inactive)
COc1ccc(/C=N/NS(=O)(=O)c2ccc(/C=C3\NC(=O)N(C)C3=O)cc2)cc1	> 100 µM (inactive)
CCN(CC)CCOc1ccc(C(O)(Cc2ccc(OC)cc2)c2ccccc2)cc1 (stereo not given)	16.2 µM (inactive)
O=C1CCCC/C1=C1/SC(=N/c2ccccc2)/C(=N\c2ccccc2)N1c1ccccc1	> 100 µM (inactive)
CC(CC(=O)Nc1ccc(NC(=O)CC(C)/N=N\C(N)=O)cc1)/N=N\C(N)=O (stereo not given)	> 100 µM (inactive)

----------
Each item that follows carries a reported GI50.
Tested on: ACHN
Experiment: NCI tumour cell line growth inhibition, 48 h
Active and inactive are the calls of the source. Rule as the data show it: active = GI50 up to about 1.1 µM and inactive = higher.

Compound	Measured On	GI50
O=C1CCCC/C1=C1\C(=O)Nc2cc(F)ccc21	ACHN	> 100 µM (inactive)
COC1OC(COC(C)=O)C(OC(C)=O)C(OC(C)=O)C1NC(=O)N(CCCl)N=O (stereo unspecified)	ACHN	> 100 µM (inactive)
O=C1c2ccccc2-c2nc(-c3cccs3)cc3c2c1nc1ccccc13	ACHN	34.4 µM (inactive)
CCc1n[nH]c(=O)n1/N=C/c1ccccc1Cl	ACHN	> 100 µM (inactive)
COc1ccc(C2CC(c3cc4c(C)c(C(=O)c5ccccc5)oc4cc3O)=Nc3ccccc3S2)cc1OC (stereo unspecified)	ACHN	> 65.8 µM (inactive)
NC(=O)C(NC=O)c1ccccc1 (stereo unspecified)	ACHN	> 100 µM (inactive)

----------
System: TK-10
Assay: NCI tumour cell line growth inhibition, 48 h
Active and inactive are the calls of the source. Rule as the data show it: active = GI50 up to about 1.1 µM and inactive = higher.
Labels: active, inactive

Compound	Qualitative Label
COC(=O)c1cccc(COc2ccc([N+](=O)[O-])cc2Cl)c1	inactive
CN1c2ccc(O)c(O)c2-c2cc(O)cc3c2C1CCC3 (stereo not given)	inactive
COc1ccc(CN2CC(C)(C)C2=O)c(OC)c1	inactive
O=C1c2ccccc2C(=O)N1C/C=N/NS(=O)(=O)c1ccc(Cl)cc1	inactive
N/C(S)=N/N=C/c1cc(CN2CCOCC2)c(N)cn1	inactive
COc1ccc2nc3c4c(nccc4c2c1)-c1ncccc1C3=O	active
O=S(=O)(O)c1cc(/N=N/c2cc(S(=O)(=O)O)c3ccccc3c2O)ccc1/C=C/c1ccc(/N=N/c2cc(S(=O)(=O)O)c3ccccc3c2O)cc1S(=O)(=O)O	inactive
Cc1ccc(-c2ccc(Nc3c4ccccc4nc4ccccc34)cc2)cn1	inactive
CCCN1CN(C(C(=O)N[C@@H]2C(=O)N3C2SC(C)(C)C3C(=O)O)c2ccc(O)cc2)CSC1=S (stereo not given in full)	inactive
COC(=O)[C@@]12CC[C@]1(C(=O)OC)C1C(C)=CC(=O)O[C@@]12C (stereo not given in full)	inactive
